Measured %Inh by item
# Test system: DCAMKL1;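 note: KINOMEscan kinase panel screen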
# Construct: gene DCLK1
# testSettings: concentration: 1 μM, replicates: in singlicate; n = 1

compound	readingUnit	%Inh
COc1cccc(C2=C(Nc3cccc(C(=O)O)c3)C(=O)NC2=O)c1 [SB-390770]	%	12
O=C(NCCNc1ccnc(Nc2ccc(F)cc2)n1)Nc1ccc2c(c1)OCO2 [GSK1379882]	%	0
Cc1nc(N(C)[C@H]2CN(C(=O)CC#N)CC[C@H]2C)c2cc[nH]c2n1	%	6
COc1cc(OC)cc(-c2cc3cnc(N)nc3nc2NC(=O)NC(C)(C)C)c1	%	0
Cc1ccc(-c2ccc3c(ccc4sc5c(c43)NC[C@@H](C)N=C5N(C)C)n2)cn1	%	9
Nc1nc(N)c2nc(-c3ccccc3)[nH]c2n1 [SKF-12778]	%	15
COc1cc2nccc(Nc3cccc(Oc4ccccc4)c3)c2cc1OC.Cl [GW284543]	%	11
O=C(Nc1n[nH]c2cc(-c3ccccc3F)ccc12)C1CC1 [SB-733371]	%	16
Cc1ccccc1COc1cc(-n2cnc3cc(Cl)ccc32)sc1C(N)=O [GW813349]	%	0
